assay: yeast display, Sf9 membrane polyspecificity reagent, FACS + sequencing; frameworks hold sequencing errors
readoutKind: polyreactivity (PSR sort gate)

macromoleculeSequence	polyreactivity (PSR sort gate)
QVQLVESGGGLVQAGGSLRLSCAASGRIFYQNAMGWYRQAPGKARELVADSASGGSTYYADSVKGRFTISRDNAKNTVYLQMNSLKPEDPAVYYCATAVLYGDGWYYYWGQGTQVTVSS	low polyreactivity
QVQLVESGGGLVQAGGSLRLSCAASGLIFRLYAMGWYRQAPGKERELVAAISGGGGSTYYADSVKGRFTISRDNAKNTVYLQMNSLKPEDTAVYYCAATYSRGYWWSEYDYWGQGTQVTVSS	low polyreactivity
QVQLVESGGGLVQAGGSLRLSCAASGSTFGPNAMGWYRQAPGKERELVATITYSGGSTYYADSVKGRFTISRDNAKNTVYLQMNSLKPEDTAVYYCAAVYRYSRFTYGYWGQGTQVTVSS	high polyreactivity
QVQLVESGGGLVQAGGSLRLSCAASGSTIGKNVMGWYRQAPGKEREVVAAISARGGRSYYADSVKGRFTISRDIAKNTVYLQMNSLKPEDTAVYYCNTERSYTGTGRYRSSTAYGYWGQGTQVTVSS	high polyreactivity

INPUT: State its polyreactivity (PSR sort gate) for this sequence: "QVQLVESGGGLVQAGGSLRLSCAASGRTFYPYAMGWYRQAPGKERELVAAISSSGGSTYYADSVKGRFTISRDNAKNTVYLQRNSLKPEYTPVYYCASYLRPGGNYYWGQGTQVTVSS"
OUTPUT: high polyreactivity

----------
assay: yeast display, Sf9 membrane polyspecificity reagent, FACS + sequencing; frameworks hold sequencing errors
readoutKind: polyreactivity (PSR sort gate)

Below are worked cases with known answers.
macromoleculeSequence	readoutKind	result
QAQLVESGGGLVQAGGRLRLICAASGSIFAGYAMGWSRQAPGKERELVATITSSSRTNYADSVKGRFSISRDNAKNNVYLQMNILKPEETAVSYCAARGRSVIDVYRMYYWGQGTKVTVSS	polyreactivity (PSR sort gate)	high polyreactivity
QVQLVESGGGLVQAGGILRLSCAASGSIFSQYAMGWYRQAPGKERELVATISWNGGRTYYADSVKGRFTISRDNAKNTVYLELNSLKPEDTAVYYCAARYGGVPYYYWGQGTQVTVSS	polyreactivity (PSR sort gate)	high polyreactivity
QVQLVESGGGLVQAGGSLRLSCAASGSIFPKNAMGWYRQAPGKERELVAGITSRTGRTYYADSVKGRFTISRDKAKNTVYLQMNSLKPEDTAVYYCAARIGGGPVKYDYWGQGTQVTVSS	polyreactivity (PSR sort gate)	high polyreactivity
QVQLVESGGGLVQAGGSLRLSCAASGFTFAMNAMGWYRQAPGKERELVAAITFSGGSTYADSVKGRFTISRDNAKNTVYLQMNSLKPEDTAVYYCNAGGDGVATGYDYWGQGTQVTVSS	polyreactivity (PSR sort gate)	low polyreactivity
QVQLVESGGGLVQAGGSLRLSCAASGIIFVDYVMGWYRQAPGKERELVAAITYTGGSTYYADSVKGRFTISRDNAKNTVYLQMNSLKPEDTAVYYCAARRNDRFFPAYYYWGQGTQVTVSS	polyreactivity (PSR sort gate)	high polyreactivity

Take each entry in turn and give its polyreactivity (PSR sort gate).
1. QVQLVESGGGLVQAGGSLRLSCAASGIIFTYYAMGWYRQAPGKERELVAAISDSGGGTYYADSVKGRFTISRDNAKNTVYLQMNSLKPEDTAVYYCAASGAWWDDYWGQGTQVTVSS
2. QVQLVESGGCLVQAGGSLRLSCAASGFTFRYYAMGWYRQAPGKERELVASITGHGGSTYYADSVKGRFTISRDNAKNTVYLQMKSLKPEDTAVYYCNARVRGYYEYNYWGQGTQVTVST
3. QVQLVESGGGLVQAGGSLRLSCAASGRIFQNYAAMGRYRPPPGKERELVASIRATGGSTYYADSVKGRFTISRDNAKNTVYLQMNSLKPEDTAVYYCAARFAAKSLPAYDYWGQGTQVTVSS
4. QVQLVESGGGLVQAGGSLRLSCAASGSTCSRNAMGWYRQAPGKERELVAAINYSGGITYYADSVKGRFTISRDNAKNTVYLQMNSLKPEDTAVYYGAAVATNVPTHGRPSRRAYDYWGQGTQVTVSS
5. QVQLVESGGGIVQAGGSLRLSCAASGRTFFLYTLGWYRQAPGKEREFVAAINYSGGRTYYADSVKGRFTISRDKAKNTVYLQMNSLKPEDTAVYYCAAYRGSYSYDYWGQGTQVTVSS
6. QVQLVESGGGLVQAGGSLRLSCAASGSIFGVYAMGWYRQAPGTERELVAAISSRGSSTYYADSVKGRFTISRDNAKKTVYLQMLSLKPEDTAVYYCAARPGIRSYPPGYGYWGQGTQGTVSS

OUTPUT:
1: high polyreactivity; 2: high polyreactivity; 3: low polyreactivity; 4: low polyreactivity; 5: high polyreactivity; 6: high polyreactivity

----------
assay: yeast display, Sf9 membrane polyspecificity reagent, FACS + sequencing; frameworks hold sequencing errors
readoutKind: polyreactivity (PSR sort gate)

Answered cases to consult:
macromoleculeSequence	result
QVQLVESGGGLVQAGGSLRLSCAASGSTFYRYAMGWYRQAPGKERELVAAITSAGSTNYADSVKGRFTISRDNGNNTVYLQMYSLKPVDTAVYYCAADHGRPYFSYDYWGQGSQVTVSS	low polyreactivity
QVQLVESGGGLVQAGGSLRLSCAASGFIFKRYAMGWYRQAPGKERELVAAITSGGSTHYADSVKGRFTISRDNAKNTVYFQMNSLKPEDTAVYYCASRRYKWGVRYDYWGQGTQVTVSS	high polyreactivity
QVQLVESGGGLVQAGGSLRLSCAASGFIFLYYAMGWYRQAPGKERELVAAISRSGGRTYYADSVKGRFTISRDNAKNTVYLQMNSLKPEDTAVYYCAADRLGSISGYDYWGQGTQVTVSS	high polyreactivity
QVQLGESGGGLVQAGGSLRLSCAASGSTFSCYAMGWYRQAPGKEREFVAAISWSGGSTYYADSVKGRFTISRDTAKNTVYLQMNSLKPEDTEVYYCAATRRGPYWWFGYDYWGQGTQVTVSS	high polyreactivity
QVQLVESGGGLVQAGGSLRLSCAASGIISSYYAMGWYRQAPGKERELVAAISKSGGSTDYADSVKGRFTISRDNAKNTVYLQMNSLKPEDTAVYYCAADAYWSYSTRYWFAYDYWGQGTQVTVSS	low polyreactivity
QVQLVESGGGLVQAGGSLRLSCAASGRTFFGYAMGWYRQATGKERELVAAINWGGASTYYADSVKGRFTISRDNAKNTVYLQMNSLKPEDTAVYYCAADSVPSRPTYGRYDYWGQGTQVTVSS	low polyreactivity
QVQLVESGGGLVQAGGSLRLSCAASGRIFGKNVMGLYRKAPGKERELVAAINRSSRTYYADSVKGRFTISRDNAKNTVYLQMNSLKPEDTAVYYCAAHAFPDGDYWGQGTQVTVSS	high polyreactivity
QVQLVESGGGLVQAGGSLRLSCAASGYTFYINATGWYRQAPGKERELVAVITWSSGSTYYADSVKGRFTISRDNAKNTVYLQMNSLKPEDTAVYYCAADVTYEDGAWTIQYDYWGQGTQVTVSS	high polyreactivity

Give measured polyreactivity (PSR sort gate) for every item shown.
1. QVQLVESGGGLVQAGGSLRLSCAASGSTFAKNAMGLYRQAPGKERELVAAISRGGNTYYADSVKGRFTISRDNAKNTVYLQMNSLKPEDTAVYYCAKLPYTRNYLGSLYDYWGQCTQVTVSS
2. QVQLVESGGGLVQAGCSLRLSCAASGSIRGYAMGWSRQAPGKERELVASITWSGGSTYYADSVKGRFTMSRDNAKYTVYLQMHSLNPEDTAVYYCAASPSPYASVIRPYDYWGQGTQVTVSS

OUTPUT:
high polyreactivity
low polyreactivity

Answer for every listed entry: what is its polyreactivity (PSR sort gate)? The entries follow.
1. QVQLVESGRGLVQAGGSLRLSCAASGSTFQVYTMGWYRQAPGKEREFVASISWSGSSTYYADSVKGRFTISRDNAKNTVYLQMNSLKPEDTAVYYCAARVGSTYRRYYYWGQGTQVTVSS
2. QVQLVESGGGLVQAGGSLRLSCAASGSIFRPYTMGWYRQAPGKERELVATISSTGITNYADSVKGRFTISRDNAKNTVYLQMNSLKPEDTAVYYCAARGRYVTPQPSYDYWGQGTQVTVSS
3. QVQLVESGGGLVHAGGRLRLSFAASGSIFAVYAMGWYRQAPGKEREFVARIAWGGGRTYYADSVKGRFTISRDNAQNTVYLQMNSLKPEDTAVYYCNAERAGTYRYDYWGQGPQVTVSS
4. QVPLVESGGGLVQAGGSLRISCAASGSTFWYYAMGWYRQAPGKEREMVATITSTGTTNYADSVKGRFTISRDTAKNTVYLQMNSLKPEDTAVYYCNARSWSYSYPYLTYYYIAGYWGQGTQVTVSS
5. QVQLVESGGGLVQAGGSLRLSCAASGRTFTYNAMGWYRQAPGKERELVASIRRSGTITYYADSVKGRFTISRDNAKNTVYLQMNSLKPEDTAVYYCAARYPWYRYYSWGQGTQVTVSS
6. QVQLVQSGGGLVQAGGSLRLSCAASGRNYSDNPMGWYRQAPGKERELVAANSSTGGTYYADSVKGRFTISRDNAKNTVYLQMNSLKPEDTAVYYCAARYRTLTKYYWGQGTQVSVSS
7. QVQLVESGGGLVQAGGSLRLSCAASGRTFNRYAMGWYRQAPGKERELVAAINSVGSTYYADSVKGRFPISRDNAKNTVYLQMNSLKPEDTAVYYCNAVQGSRFGYWGQGTQVTVSS

OUTPUT:
["high polyreactivity", "high polyreactivity", "high polyreactivity", "low polyreactivity", "high polyreactivity", "low polyreactivity", "high polyreactivity"]
